A short record of IC50 observed with aromatase (Homo sapiens) follows.
Sequence (P11511 whole entry): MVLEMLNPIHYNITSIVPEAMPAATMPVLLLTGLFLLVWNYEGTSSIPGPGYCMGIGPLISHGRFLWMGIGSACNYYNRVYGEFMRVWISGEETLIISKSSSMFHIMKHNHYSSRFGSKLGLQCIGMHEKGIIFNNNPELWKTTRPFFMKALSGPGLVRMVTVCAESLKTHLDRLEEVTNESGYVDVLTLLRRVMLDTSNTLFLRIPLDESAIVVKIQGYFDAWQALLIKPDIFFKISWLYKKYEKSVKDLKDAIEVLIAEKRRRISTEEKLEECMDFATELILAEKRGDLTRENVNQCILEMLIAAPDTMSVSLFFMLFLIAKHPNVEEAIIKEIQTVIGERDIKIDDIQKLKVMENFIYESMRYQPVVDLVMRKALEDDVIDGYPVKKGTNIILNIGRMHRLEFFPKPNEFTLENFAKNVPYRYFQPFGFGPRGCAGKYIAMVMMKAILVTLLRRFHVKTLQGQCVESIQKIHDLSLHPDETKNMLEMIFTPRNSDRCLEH
State just the number; it will be interpreted in nM.

Example compounds with recorded IC50:
C[C@]12CC[C@H]3[C@@H]([C@H](S)CC4=CC(=O)C=C[C@@]43C)[C@@H]1CCOC2 [Example 8]    400
C[C@]12C=CC(=O)C=C1C[C@@H](S)[C@@H]1[C@@H]2CC[C@]2(C)C(=O)OCC[C@@H]12 [Example 16]    500

Proceed to the following item.
Query :: Reported IC50 for C[C@]12CCC(=O)C=C1C[C@@H](Sc1ccc(N)cc1)[C@@H]1[C@@H]2CC[C@]2(C)C(=O)OCC[C@@H]12 [Example 1] : what is it?
Result :: 2300

Where do these numbers come from? They come from patent US5539127A.
